Measured Target: KRAS (G12D) (Homo sapiens, UniProt P01116, G12D)
Construct: in-cell western with KRAS G12D antibody after 24 h
Sequence (P01116 1-188 isoform P01116-2 G12D): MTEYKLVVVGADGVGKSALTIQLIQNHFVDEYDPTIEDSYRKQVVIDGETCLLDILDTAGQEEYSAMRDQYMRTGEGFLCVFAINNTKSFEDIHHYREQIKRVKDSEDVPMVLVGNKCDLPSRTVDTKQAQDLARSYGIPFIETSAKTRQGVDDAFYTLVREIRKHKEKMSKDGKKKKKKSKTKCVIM
Assay Remarks: KRAS (G12D) cellular degradation assay in AsPC-1 cells
Type: cell-based
Measurement Parameters: 24 hours, antibody fluorescence (Odyssey CLX), DC50 half-maximal degradation concentration
Listed here: items and their measured DC50.
Value Type: DC50

- CCn1nccc1-c1ccc([C@H](CO)NC(=O)[C@@H]2C[C@@H](O)CN2C(=O)[C@H](C(C)C)n2cc(-c3ccc(COc4c(-c5c(C)c(F)cc6[nH]ncc56)c(C5CC5)cc5c(N6CCCNCC6)nc(OC[C@H]6CCCO6)nc45)cc3)nn2)cc1 [Example 214]: < 10 nM
- CO[C@@H](C)COc1nc(N2C[C@@H]3C[C@H]2CN3)c2cc(C3CC3)c(-c3c(C)c(F)cc4[nH]ncc34)c(OCc3ccc(-c4cn([C@H](C(=O)N5C[C@H](O)C[C@H]5C(=O)N[C@H](C#Cc5cc(C)cc6[nH]ncc56)CO)C(C)C)nn4)cc3)c2n1 [Example 188]: 10 to 100 nM
- CCn1nccc1-c1ccc([C@H](CO)NC(=O)[C@@H]2C[C@@H](O)CN2C(=O)[C@H](C(C)C)n2cc(-c3ccc(COc4c(-c5c(C)c(F)cc6[nH]ncc56)c(C5CC5)cc5c(N6CCC=CCC6)nc(OC[C@H](C)OC)nc45)cc3)nn2)cc1 [Example 158]: 10 to 100 nM
- CO[C@@H](C)COc1nc(N2C[C@H]3C[C@@H]2CN3)c2cc(C3CC3)c(-c3c(C)c(F)cc4[nH]ncc34)c(OCc3ccc(-c4cn([C@H](C(=O)N5C[C@H](O)C[C@H]5C(=O)NCc5ccc(-c6scnc6C)cc5)C(C)C)nn4)cc3)c2n1 (single isomer, unassigned) [Example 11B]: > 1000 nM

---

Measured Target: KRAS (G12D) (Homo sapiens, UniProt P01116, G12D)
Construct: in-cell western with KRAS G12D antibody after 24 h
Assay Remarks: KRAS (G12D) cellular degradation assay in AsPC-1 cells
Assay type: cell-based
Measurement Parameters: 24 hours, antibody fluorescence (Odyssey CLX), DC50 half-maximal degradation concentration
Listed here: items and their measured DC50.
Value Type: DC50

* CCn1nccc1-c1ccc([C@H](CO)NC(=O)[C@@H]2C[C@@H](O)CN2C(=O)[C@H](C(C)C)n2cc(-c3ccc(COc4c(-c5c(C)c(F)cc6[nH]ncc56)c(C5CC5)cc5c(N6C[C@@H]7C[C@H]6CN7)nc(OC6CCC7(CC6)COC7)nc45)cc3)nn2)cc1 [Example 43] | < 10 nM
* CCn1nccc1-c1ccc([C@@H](NC(=O)[C@@H]2C[C@@H](O)CN2C(=O)[C@H](C(C)C)n2cc(-c3ccc(COc4c(-c5c(C)c(F)cc6[nH]ncc56)c(C5CC5)cc5c(N6C[C@@H]7C[C@H]6CN7)nc(O[C@H]6C[C@H](OC)C6)nc45)cc3)nn2)[C@H](C)O)c2c1CC2 [Example 147] | < 10 nM
* CO[C@@H](C)COc1nc(N2CCCNCC2)c2cc(C3CC3)c(-c3c(C)c(F)cc4[nH]ncc34)c(OCc3ccc(-c4cn([C@H](C(=O)N5C[C@H](O)C[C@H]5C(=O)N[C@@H](CO)c5ccc(-c6scnc6C)c6c5CC6)C(C)C)nn4)cc3)c2n1 [Example 219] | < 10 nM
* CCn1nccc1-c1ccc([C@H](CO)NC(=O)[C@@H]2C[C@@H](O)CN2C(=O)[C@H](C(C)C)n2cc(-c3ccc(COc4c(-c5c(C)c(F)cc6[nH]ncc56)c(C5CC5)cc5c(N6C[C@@H]7C[C@H]6CN7)nc(OC[C@H](C)OC)nc45)cc3OC)nn2)cc1 [Example 45] | 10 to 100 nM
* CCn1nccc1-c1ccc([C@@H](NC(=O)[C@@H]2C[C@@H](O)CN2C(=O)[C@H](C(C)C)n2cc(-c3ccc(COc4c(-c5c(C)c(F)cc6[nH]ncc56)c(C5CC5)cc5c(N6C[C@@H]7C[C@H]6CN7)nc(OC6CCC(OC)CC6)nc45)cc3)nn2)[C@@H](C)O)cc1 (stereo partly drawn) [Example 127] | < 10 nM
* CNc1nc2ccc(C#C[C@H](CO)NC(=O)[C@@H]3C[C@@H](O)CN3C(=O)[C@H](C(C)C)n3cc(-c4ccc(COc5c(-c6c(C)c(F)cc7[nH]ncc67)c(C6CC6)cc6c(N7C[C@@H]8C[C@H]7CN8)nc(OC[C@H](C)OC)nc56)cc4)nn3)cc2s1 [Example 176] | < 10 nM

Measured values drawn from patent US20260295053A1 for this set.
